So I've got a bunch of variants here, and I need their self-cleavage values.
B1: HDV Ribozyme (parent)
chain: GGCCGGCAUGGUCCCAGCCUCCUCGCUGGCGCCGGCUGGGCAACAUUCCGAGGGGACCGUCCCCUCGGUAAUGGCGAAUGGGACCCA

Variants of: B1
Assay: self-cleavage, relative activity (ratio to wild type); higher = more cleavage; co-transcriptional
Give bare numbers.

1. G82U C86G: 0.39
2. C18G A87U: 0.154
3. G67U U69A: 0.801
4. G31C G38U: 0.123
5. A51G G74C: 0.148
6. G1C C48G: 0.346
7. C57G G82A: 0.302
8. C7U C75A: 0.177

Kindly give each listed record's self-cleavage.
1. C21G G55U
2. U12A G68A
3. U60C G81A

1: 0.0755; 2: 0.155; 3: 0.604
